assay name: Microsomal stability, mouse microsomes with NADPH and UDPGA (Phase II)
Assay type: in vitro ADME
study conditions: mouse liver microsomes, NADPH & UDPGA; read-out: Scaled-up CLint
assay metric: CLint scaled at 2 μM

Per the records, this compound ( CNc1cc(C)c(C(N)=O)cn1 [Compound 4, 4-methyl-6-(methylamino) nicotinamide] ) has CLint scaled at 2 μM equal to < 23.7 mL/min/kg

====

system tested: NNMT in K562 cells (Homo sapiens)
Construct: In K562 cells, which express NNMT; host or cells: K562
Sequence (P40261 1-264): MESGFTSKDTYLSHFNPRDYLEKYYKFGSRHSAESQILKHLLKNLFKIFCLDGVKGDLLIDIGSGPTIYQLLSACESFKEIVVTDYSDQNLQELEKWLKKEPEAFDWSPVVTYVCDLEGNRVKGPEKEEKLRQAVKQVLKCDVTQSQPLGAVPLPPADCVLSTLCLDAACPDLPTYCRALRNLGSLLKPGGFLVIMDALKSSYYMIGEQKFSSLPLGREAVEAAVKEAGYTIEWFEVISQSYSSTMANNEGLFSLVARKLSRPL
assay name: Cellular inhibition of NNMT in K562 cells by 1-MNA quantification
Format: cell-based
study conditions: K562 cells, 24 h, 1-MNA quantification; read-out: IC50, NNMT inhibition in K562 cells
assay metric: pIC50
Scale note: pIC50 = -log10(concentration in M).

Per the records, this compound ( CNc1cc(C)c(C(N)=O)cn1 [Compound 4, 4-methyl-6-(methylamino) nicotinamide] ) has pIC50 equal to 7.82

====

assay name: In vivo pharmacokinetics, plasma concentration of inhibitor in female C57B16/N mice
study conditions: female, C57B16/N, mouse, plasma, po, 50 mg/kg
assay metric: Cmax
Write your answer as a measured quantity: the number, then the unit.

Per the records, this molecule ( CNc1ccc(C(N)=O)cn1 [JBSNF-000265, reference compound] ) has Cmax equal to 20.9 µg/mL

====

assay name: Microsomal stability, mouse microsomes with NADPH (Phase I)
Type: in vitro ADME
study conditions: mouse liver microsomes
assay metric: microsomal CLint at 2 μM

As a guide, the following entries are already answered.
{"compound": "CNc1ccc(C(N)=O)cn1 [JBSNF-000265, reference compound]", "microsomal CLint at 2 μM": "~4.94 µL/min/mg"}
{"compound": "CNc1cc(C)c(C(N)=O)cn1 [Compound 4, 4-methyl-6-(methylamino) nicotinamide]", "microsomal CLint at 2 μM": "< 5.42 µL/min/mg"}

# input for lookup
Per the records, this compound ( `CNc1cc(Cl)c(C(N)=O)cn1` ) has microsomal CLint at 2 μM equal to < 5.42 µL/min/mg

====

assay name: In vivo pharmacokinetics, plasma concentration of inhibitor in female C57B16/N mice
study conditions: female, C57B16/N, mouse, plasma, po, 50 mg/kg
assay metric: half-life (h)
Please reply with the bare figure in h and do not write the unit itself.

Per the records, this compound ( CNc1ccc(C(N)=O)cn1 [JBSNF-000265, reference compound] ) has half-life equal to 1.06

====

Each entry below carries its recorded pIC50.
system tested: NNMT in K562 cells (Homo sapiens)
Construct: In K562 cells, which express NNMT; host or cells: K562
assay name: Cellular inhibition of NNMT in K562 cells by 1-MNA quantification
Format: cell-based
study conditions: K562; read-out: Cellular Activity IC50 (K562)
Scale note: pIC50 = -log10(concentration in M).

{"molecule": "CNc1cc(Cl)c(C(N)=O)cn1 [Compound 13]", "pIC50": 6.97}

# input for lookup
Per the records, this molecule ( CNc1cc(C)c(C(N)=O)cn1 [Compound 4, 4-methyl-6-(methylamino) nicotinamide] ) has pIC50 equal to 7.80

====

assay name: Microsomal stability, human microsomes with NADPH and UDPGA (Phase II)
Type: in vitro ADME
study conditions: human liver microsomes, NADPH & UDPGA; read-out: Predicted hepatic Clint
assay metric: CLhep predicted at 2 μM

Per the records, this compound ( CNc1cc(C)c(C(N)=O)cn1 [Compound 4, 4-methyl-6-(methylamino) nicotinamide] ) has CLhep predicted at 2 μM equal to < 5.12 mL/min/kg

====

assay name: In vivo pharmacokinetics, plasma concentration of inhibitor in female C57B16/N mice
study conditions: female, C57B16/N, mouse, plasma, po, 50 mg/kg
assay metric: AUC(0-t) (ng·h/mL)
Please reply with the bare figure in ng·h/mL and do not write the unit itself.

Per the records, this compound ( CNc1ccc(C(N)=O)cn1 [JBSNF-000265, reference compound] ) has AUC(0-t) equal to 15400

====

assay name: In vivo pharmacokinetics, plasma concentration of inhibitor in female C57B16/N mice
study conditions: female, C57B16/N, mouse, plasma, iv, 1 mg/kg
assay metric: MRT inf
Write your answer as a measured quantity: the number, then the unit.

Per the records, this compound ( CNc1cc(C)c(C(N)=O)cn1 [Compound 4, 4-methyl-6-(methylamino) nicotinamide] ) has MRT inf equal to 13 min

====

assay name: Microsomal stability, human microsomes with NADPH (Phase I)
Format: in vitro ADME
study conditions: human liver microsomes, 2 μM
assay metric: half-life at 2 μM

As a guide, the following entries are already answered.
{"compound": "CNc1cc(Cl)c(C(N)=O)cn1 [Compound 13]", "half-life at 2 μM": "> 256 min"}
{"compound": "CNc1cc(C)c(C(N)=O)cn1 [Compound 4, 4-methyl-6-(methylamino) nicotinamide]", "half-life at 2 μM": "> 256 min"}

# input for lookup
Per the records, this compound ( CNc1ccc(C(N)=O)cn1 [JBSNF-000265, reference compound] ) has half-life at 2 μM equal to ~203 min

====

assay name: In vivo pharmacokinetics, plasma concentration of inhibitor in female C57B16/N mice
study conditions: female, C57B16/N, mouse, plasma, po, 10 mg/kg
assay metric: AUC(0-inf) (ng·h/mL)
Please reply with the bare figure in ng·h/mL and do not write the unit itself.

Per the records, this compound ( CNc1cc(C)c(C(N)=O)cn1 [Compound 4, 4-methyl-6-(methylamino) nicotinamide] ) has AUC(0-inf) equal to 2810
